- experimental-system: BACE1 enzyme (soluble, truncated BACE enzyme, BACE1deltaTM96His) (Homo sapiens, UniProt P56817)
- Construct: soluble, truncated BACE enzyme (BACE1deltaTM96His); His; made in house
- Sequence (P56817 46-457): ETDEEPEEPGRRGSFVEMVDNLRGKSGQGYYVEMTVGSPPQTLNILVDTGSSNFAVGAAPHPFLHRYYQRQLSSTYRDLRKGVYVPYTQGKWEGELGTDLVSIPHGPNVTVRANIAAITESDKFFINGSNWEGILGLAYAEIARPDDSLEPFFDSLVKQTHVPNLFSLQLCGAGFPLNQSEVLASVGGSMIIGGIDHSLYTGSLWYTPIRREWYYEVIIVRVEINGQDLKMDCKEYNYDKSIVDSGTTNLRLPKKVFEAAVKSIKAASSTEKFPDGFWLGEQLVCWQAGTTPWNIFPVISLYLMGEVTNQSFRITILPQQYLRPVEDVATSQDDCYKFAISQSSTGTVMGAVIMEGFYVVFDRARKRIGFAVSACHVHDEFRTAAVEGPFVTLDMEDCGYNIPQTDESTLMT
- assay-comment: BACE1 Fluorescent Polarization (FP) Assay
- Format: biochemical
- conditions-used: 8-point curve; geometric mean of 2-4 IC50 determinations unless footnoted (^2: 5-6 determinations; ^4: single determination); read-out: BACE activity, 8-point curve, IC50
Counter-ions that a name gives are not always drawn.
recorded-endpoint: IC50 (µM)
Write the value in µM as a bare number.

The examples below pair each entry with its known result.
molecule="C[C@H]1C[C@@]2(C=CS(=O)(=O)N2c2cccc(F)c2)CCN1Cc1ccc(O)c(OC2CC2)c1 [Example 14]" recorded_endpoint=IC50 measured_value=0.0425
molecule=Cc1scnc1-c1cc(CN2CC[C@]3(C=CS(=O)(=O)N3c3cccc(F)c3)C[C@@H]2C)ccc1O recorded_endpoint=IC50 measured_value=0.00244
molecule="Cc1ccncc1-c1cccc(CN2CC[C@]3(C=CS(=O)(=O)N3c3cccc(F)c3)C[C@@H]2C)c1 [Example 39, hydrochloride salt]" recorded_endpoint=IC50 measured_value=0.0795
molecule=Cc1cccnc1-c1cc(CN2CC[C@]3(C=CS(=O)(=O)N3c3cccc(F)c3)C[C@@H]2C)ccc1O recorded_endpoint=IC50 measured_value=0.0138
molecule="C[C@H]1C[C@@]2(C=CS(=O)(=O)N2c2cccc(F)c2)CCN1Cc1ccc(O)c(C2CCCO2)c1 (single isomer, unassigned) [Example 31]" recorded_endpoint=IC50 measured_value=0.0105
molecule=Cc1cncc(-c2ocnc2CN2CC[C@]3(C=CS(=O)(=O)N3c3cccc(F)c3)C[C@@H]2C)c1 recorded_endpoint=IC50 measured_value=0.752

**Query** Consider the molecule C[C@H]1C[C@]2(CCN1Cc1ccc(O)c(Cl)c1)CCS(=O)(=O)N2c1cccc(F)c1 [Example 29, hydrochloride salt] and give its measured IC50.
**Result** 0.332

**Query** Consider the molecule Cc1ccccc1-c1cc(CN2CC[C@]3(CCS(=O)(=O)N3c3cccc(F)c3)C[C@@H]2C)ccc1O [Example 62, hydrochloride salt] and give its measured IC50.
**Result** 0.019
